Measured values drawn from patent US20220177604A1 for this set.

biological target: T1, human immunoglobulin E (hIgE) (human, UniProt P01854-1 1-428); experiment: SPR (Biacore)
T1 construct: also called human IgE; Native IgE (Abcam)
T1 sequence (P01854 whole entry): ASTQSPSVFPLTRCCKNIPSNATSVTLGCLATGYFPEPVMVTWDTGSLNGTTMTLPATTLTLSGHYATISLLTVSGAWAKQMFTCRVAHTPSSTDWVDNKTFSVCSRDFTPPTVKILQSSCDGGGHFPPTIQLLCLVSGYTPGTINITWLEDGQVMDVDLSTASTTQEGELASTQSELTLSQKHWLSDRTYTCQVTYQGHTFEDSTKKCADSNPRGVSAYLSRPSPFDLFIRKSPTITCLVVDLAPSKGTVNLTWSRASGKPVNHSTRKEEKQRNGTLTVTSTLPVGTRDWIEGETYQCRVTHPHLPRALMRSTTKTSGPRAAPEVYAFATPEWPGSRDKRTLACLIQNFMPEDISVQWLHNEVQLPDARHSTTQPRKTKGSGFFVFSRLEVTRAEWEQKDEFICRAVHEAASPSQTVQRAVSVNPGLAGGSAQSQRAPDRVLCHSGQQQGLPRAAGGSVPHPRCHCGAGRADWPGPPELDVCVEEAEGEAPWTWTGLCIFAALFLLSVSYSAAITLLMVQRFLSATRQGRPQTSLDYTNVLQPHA
parameter: Ratio pH 7.4/pH6.0 (of KD)
Field format: numeric only.

OMA VH15 - VL3S31H (antibody, V domains shown) VH: EVQLVESGGGLVQPGGSLRLSCAVSGYSITSGHRWEWIRQAPGKGLEWVASIHYDGSTNYNPSVKGRITISRDDSKNTFYLQMNSLRAEDTAVYYCARATHYFGHWHFAVWGQGTLVTVSS VL: DIQLTQSPSSLSASVGDRVTITCRASQSVDYDGDHYMNWYQQKPGKAPKLLIEWGSYLRSGVPSRFSGSGSGTDFTLTISSLQPEDFATYYCQQNAEDPYTFGQGTKVEIK	16.7
OmaVH15G55H - VL3 (antibody, V domains shown) VH: EVQLVESGGGLVQPGGSLRLSCAVSGYSITSGHRWEWIRQAPGKGLEWVASIHYDHSTNYNPSVKGRITISRDDSKNTFYLQMNSLRAEDTAVYYCARATHYFGHWHFAVWGQGTLVTVSS VL: DIQLTQSPSSLSASVGDRVTITCRASQSVDYDGDSYMNWYQQKPGKAPKLLIEWGSYLRSGVPSRFSGSGSGTDFTLTISSLQPEDFATYYCQQNAEDPYTFGQGTKVEIK	5.6
OmaVH15G55HW100b - VL3D28H (antibody, V domains shown, also called OmaVH15G55HW100b VL3D25H) VH: EVQLVESGGGLVQPGGSLRLSCAVSGYSITSGHRWEWIRQAPGKGLEWVASIHYDHSTNYNPSVKGRITISRDDSKNTFYLQMNSLRAEDTAVYYCARATHYFGHHHFAVWGQGTLVTVSS VL: DIQLTQSPSSLSASVGDRVTITCRASQSVDYHGDSYMNWYQQKPGKAPKLLIEWGSYLRSGVPSRFSGSGSGTDFTLTISSLQPEDFATYYCQQNAEDPYTFGQGTKVEIK	9
OMA VH15 - VL3D28HS31H (antibody, V domains shown) VH: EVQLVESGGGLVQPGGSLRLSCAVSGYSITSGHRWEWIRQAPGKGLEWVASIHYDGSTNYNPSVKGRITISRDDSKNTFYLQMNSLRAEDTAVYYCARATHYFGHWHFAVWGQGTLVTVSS VL: DIQLTQSPSSLSASVGDRVTITCRASQSVDYHGDHYMNWYQQKPGKAPKLLIEWGSYLRSGVPSRFSGSGSGTDFTLTISSLQPEDFATYYCQQNAEDPYTFGQGTKVEIK	11.7

Let's switch to this binder now.
Could you tell me which Ratio pH 7.4/pH6.0 (of KD) is on file for Oma VH15W100b - VL3 (antibody, V domains shown) VH: EVQLVESGGGLVQPGGSLRLSCAVSGYSITSGHRWEWIRQAPGKGLEWVASIHYDGSTNYNPSVKGRITISRDDSKNTFYLQMNSLRAEDTAVYYCARATHYFGHHHFAVWGQGTLVTVSS VL: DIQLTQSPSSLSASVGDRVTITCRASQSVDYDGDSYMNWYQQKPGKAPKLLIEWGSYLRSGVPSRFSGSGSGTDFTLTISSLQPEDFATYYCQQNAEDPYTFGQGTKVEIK ? 10.2
